Attribution: the MegaScale stability set (Tsuboyama et al. 2023)

B1: 1ZHC (parent)
chain: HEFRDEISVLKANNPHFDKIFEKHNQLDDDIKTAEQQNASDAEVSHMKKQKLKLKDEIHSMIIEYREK

Variants of: B1
Assay: folding stability dG (cDNA display proteolysis); higher = more stable
Settings: PBS, room temperature
Category scheme (folding stability dG): low = under 2 kJ/mol, moderate = from 2 kJ/mol up to 4 kJ/mol, high = 4 kJ/mol and over

For R66C , which folding stability dG bin applies? low

For A12K , which folding stability dG bin applies? high

For I58V , which folding stability dG bin applies? low

For K19Y , which folding stability dG bin applies? high

For S8Q , which folding stability dG bin applies? high

For S45A , which folding stability dG bin applies? high

For F21T , which folding stability dG bin applies? low

For Q36H , which folding stability dG bin applies? low

For Q37E , which folding stability dG bin applies? low

For S40M , which folding stability dG bin applies? low

For H16G , which folding stability dG bin applies? low

For A12H , which folding stability dG bin applies? low

For A34W , which folding stability dG bin applies? low

For D41H , which folding stability dG bin applies? moderate

For R4N , which folding stability dG bin applies? low

For D5M , which folding stability dG bin applies? high

For H46T , which folding stability dG bin applies? moderate

For E43C , which folding stability dG bin applies? high

For N25Y , which folding stability dG bin applies? low

For E2P , which folding stability dG bin applies? moderate

For T33S , which folding stability dG bin applies? moderate

For E64T , which folding stability dG bin applies? low

For E35F , which folding stability dG bin applies? moderate

For V9I , which folding stability dG bin applies? high

For N25E , which folding stability dG bin applies? low

For T33Y , which folding stability dG bin applies? moderate

For I63A , which folding stability dG bin applies? moderate

For H16Y , which folding stability dG bin applies? high

For H46Y , which folding stability dG bin applies? high

For L52M , which folding stability dG bin applies? high

For N25L , which folding stability dG bin applies? high

For K19H , which folding stability dG bin applies? moderate

For I58C , which folding stability dG bin applies? low

For A34F , which folding stability dG bin applies? moderate

For E22M , which folding stability dG bin applies? high

For R4E , which folding stability dG bin applies? high

For H16L , which folding stability dG bin applies? low

For N25A , which folding stability dG bin applies? high

For N14M , which folding stability dG bin applies? low

For Q50S , which folding stability dG bin applies? low

For E64G , which folding stability dG bin applies? low

For E22W , which folding stability dG bin applies? low

For F17C , which folding stability dG bin applies? low
